Values from ChEMBL document CHEMBL5291721

biological target: UniProt P08908
Sequence (P08908 whole entry): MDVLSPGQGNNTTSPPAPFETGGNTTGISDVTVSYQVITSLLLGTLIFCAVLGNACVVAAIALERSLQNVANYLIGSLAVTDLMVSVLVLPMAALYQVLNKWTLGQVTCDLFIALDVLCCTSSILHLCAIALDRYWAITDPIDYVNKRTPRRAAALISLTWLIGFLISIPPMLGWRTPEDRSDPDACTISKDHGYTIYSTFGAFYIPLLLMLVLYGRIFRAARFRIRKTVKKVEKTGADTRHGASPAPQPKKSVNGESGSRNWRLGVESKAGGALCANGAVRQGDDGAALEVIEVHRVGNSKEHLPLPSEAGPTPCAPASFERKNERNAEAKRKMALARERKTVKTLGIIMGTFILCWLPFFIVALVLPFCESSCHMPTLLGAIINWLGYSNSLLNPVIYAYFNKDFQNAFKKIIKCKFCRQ
result_type: AC50

Lookup: Entry CC(C(=O)O)c1ccc(-c2ccccc2)c(F)c1 (stereo not drawn) : reported AC50 = ?
Found: > 30 µM

Lookup: And for NC(=O)OCC(O)COc1ccc(Cl)cc1 (stereo not drawn) [CHLORPHENESIN CARBAMATE] ?
Found: > 30 µM

Lookup: Try this compound too: `CCOC(=O)C1=C[C@@H](OC(CC)CC)[C@H](NC(C)=O)[C@@H](N)C1`
Found: > 30 µM

Lookup: Now give it for CC(C)Cc1ccc(C(C)C(=O)O)cc1 (stereo not drawn) too.
Found: > 30 µM

Lookup: What do we get for CN1CCCCC1CCN1c2ccccc2Sc2ccc([S+](C)[O-])cc21 (stereo not drawn) ?
Found: 0.214 µM

Lookup: Try CC(CN1CC(=O)NC(=O)C1)N1CC(=O)NC(=O)C1 (stereo not drawn) next.
Found: > 30 µM

Lookup: And for `CC1=C(/C=C/C(C)=C/C=C/C(C)=C/C(=O)O)C(C)(C)CCC1` ?
Found: > 30 µM

Lookup: Next: `O=[N+]([O-])c1ccc(O)c2ncccc12`
Found: > 30 µM

Lookup: For CC(=O)O[C@]1(C(C)=O)CC[C@H]2[C@@H]3C=C(C)C4=CC(=O)CC[C@@H]4[C@H]3CC[C@@]21C [NOMEGESTROL ACETATE] then?
Found: > 30 µM

Lookup: Next: CCC(=O)O[C@]1(C(=O)SCF)[C@H](C)C[C@H]2[C@@H]3C[C@H](F)C4=CC(=O)C=C[C@]4(C)[C@@]3(F)[C@@H](O)C[C@@]21C [FLUTICASONE PROPIONATE]
Found: > 30 µM

Lookup: Input `[H]/N=C(\N/C(=N/[H])Nc1ccc(Cl)cc1)NC(C)C`
Found: > 30 µM

Lookup: Similarly, Cc1cnc(C(=O)NCCc2ccc(S(=O)(=O)NC(=O)NC3CCCCC3)cc2)cn1 [GLIPIZIDE] ?
Found: 29.9 µM

Lookup: What do you get for `CC(C)(O)CNc1nc(Nc2ccnc(C(F)(F)F)c2)nc(-c2cccc(C(F)(F)F)n2)n1` ?
Found: > 30 µM

Lookup: How about this compound: `C[N+](C)(C)C[C@H](O)CC(=O)[O-]`
Found: > 30 µM

Lookup: Next up: Nc1ccc(C(=O)Oc2ccccc2)c(O)c1 [PHENYL AMINOSALICYLATE]
Found: > 30 µM

Lookup: // next record `COC(=O)c1ccc(O)cc1`
Found: > 30 µM

Lookup: Request: Cc1ncc(COP(=O)(O)O)c(C=O)c1O [PYRIDOXAL PHOSPHATE ANHYDROUS]
Found: > 30 µM

Lookup: Note, next up: CN(C)CCOC(c1ccccc1)c1ccc(Br)cc1 (stereo not drawn) [BROMODIPHENHYDRAMINE]
Found: 22.2 µM

###

target: Sodium-dependent dopamine transporter (Homo sapiens); note: assay procedure not described here
Sequence (Q01959 whole entry): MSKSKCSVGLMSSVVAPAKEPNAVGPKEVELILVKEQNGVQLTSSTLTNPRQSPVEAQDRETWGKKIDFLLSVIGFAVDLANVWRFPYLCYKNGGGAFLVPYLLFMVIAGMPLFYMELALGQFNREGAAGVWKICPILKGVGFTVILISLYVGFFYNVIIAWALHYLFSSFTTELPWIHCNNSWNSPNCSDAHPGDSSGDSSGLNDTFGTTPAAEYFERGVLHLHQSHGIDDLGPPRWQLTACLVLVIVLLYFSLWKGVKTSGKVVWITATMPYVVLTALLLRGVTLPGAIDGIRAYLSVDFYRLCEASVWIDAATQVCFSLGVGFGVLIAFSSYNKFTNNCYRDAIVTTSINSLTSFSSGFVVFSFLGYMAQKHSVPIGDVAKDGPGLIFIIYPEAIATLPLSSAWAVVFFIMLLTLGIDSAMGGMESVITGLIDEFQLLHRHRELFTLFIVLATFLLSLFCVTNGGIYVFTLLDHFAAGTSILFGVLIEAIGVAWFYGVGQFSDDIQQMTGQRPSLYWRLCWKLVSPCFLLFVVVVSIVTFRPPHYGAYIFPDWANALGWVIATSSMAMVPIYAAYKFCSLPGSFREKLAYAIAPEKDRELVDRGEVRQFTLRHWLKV
Assignment: determine reported AC50 for the given compounds.

Lookup: Give AC50 (Sodium-dependent dopamine transporter (Homo sapiens)) of the following compound: CC(C(=O)O)c1ccc(CC2CCCC2=O)cc1 (stereo unspecified) [LOXOPROFEN]
Found: > 30 µM

Lookup: Now the same for C=C[C@@]1(C)CC(=O)[C@]2(O)[C@@]3(C)[C@@H](O)CCC(C)(C)[C@@H]3[C@H](O)[C@H](OC(C)=O)[C@@]2(C)O1 [COLFORSIN]
Found: > 30 µM

Lookup: Similarly, CN1CCN(C2=Nc3ccccc3Oc3ccc(Cl)cc32)CC1 [LOXAPINE] ?
Found: > 10 µM

Lookup: Follow-up item: `C[C@@H](NCCCc1cccc(C(F)(F)F)c1)c1cccc2ccccc12`
Found: 6.4 µM

Lookup: Now give it for C#CCOc1ccc(N)cc1C(=O)NCCCC [PARSALMIDE] too.
Found: > 30 µM

Lookup: Also C/N=C(\NC)NCc1ccccc1 [BETHANIDINE] ?
Found: > 30 µM
